Target: S protein of live MERS-CoV EMC/2012 (MERS-CoV)
Sequence (K9N5Q8 18-1353): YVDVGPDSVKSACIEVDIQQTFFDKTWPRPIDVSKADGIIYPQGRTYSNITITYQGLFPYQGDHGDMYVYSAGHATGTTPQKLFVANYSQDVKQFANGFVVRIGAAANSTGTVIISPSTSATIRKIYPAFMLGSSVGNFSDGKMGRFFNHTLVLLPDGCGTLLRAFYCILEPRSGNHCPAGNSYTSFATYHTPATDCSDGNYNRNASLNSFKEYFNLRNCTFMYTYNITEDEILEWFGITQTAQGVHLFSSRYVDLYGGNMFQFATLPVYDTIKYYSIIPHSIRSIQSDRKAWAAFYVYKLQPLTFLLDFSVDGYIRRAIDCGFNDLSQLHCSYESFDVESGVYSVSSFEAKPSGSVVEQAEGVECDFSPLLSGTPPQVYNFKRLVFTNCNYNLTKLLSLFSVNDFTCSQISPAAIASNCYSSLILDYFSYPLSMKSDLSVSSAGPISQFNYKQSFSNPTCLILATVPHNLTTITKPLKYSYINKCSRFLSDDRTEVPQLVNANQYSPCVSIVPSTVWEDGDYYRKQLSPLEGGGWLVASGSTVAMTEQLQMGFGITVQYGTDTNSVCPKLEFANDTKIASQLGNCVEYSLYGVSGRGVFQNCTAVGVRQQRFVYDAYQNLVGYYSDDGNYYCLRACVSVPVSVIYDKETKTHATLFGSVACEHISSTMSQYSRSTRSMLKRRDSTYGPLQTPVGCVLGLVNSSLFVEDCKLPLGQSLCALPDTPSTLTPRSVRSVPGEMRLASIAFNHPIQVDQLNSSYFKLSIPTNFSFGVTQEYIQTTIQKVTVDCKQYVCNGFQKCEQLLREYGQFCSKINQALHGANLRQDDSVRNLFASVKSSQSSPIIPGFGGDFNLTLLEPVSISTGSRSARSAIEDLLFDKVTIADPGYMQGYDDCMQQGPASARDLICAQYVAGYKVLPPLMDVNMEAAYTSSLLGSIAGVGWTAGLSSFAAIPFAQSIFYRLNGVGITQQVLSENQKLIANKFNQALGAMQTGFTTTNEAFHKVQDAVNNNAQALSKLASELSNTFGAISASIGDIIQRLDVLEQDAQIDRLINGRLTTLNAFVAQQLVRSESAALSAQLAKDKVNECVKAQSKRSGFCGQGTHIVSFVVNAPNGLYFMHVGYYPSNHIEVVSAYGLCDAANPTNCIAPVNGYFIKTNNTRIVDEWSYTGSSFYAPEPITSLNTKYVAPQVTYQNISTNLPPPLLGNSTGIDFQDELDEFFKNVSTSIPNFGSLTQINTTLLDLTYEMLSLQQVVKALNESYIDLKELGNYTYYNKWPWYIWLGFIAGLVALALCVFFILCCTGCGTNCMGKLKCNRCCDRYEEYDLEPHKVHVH
Experiment: cell-based or functional assay
We begin with a simple list: items and their reported IC50 (µg/ml), PRNT50 live virus, wt..

Binder | IC50 (µg/ml), PRNT50 live virus, wt. / µg/mL
3A1 IgG1 (antibody, V domains shown) VH: QVQLVQSGAEVKKPGSSVKVSCKASGGTFSSYAVSWVRQAPGQGLEWVGRIIPIFGKANYAQKFQGRVTITADKSTSTAYMELSSLRPEDTAVYYCARDQGISANFKDAFDIWGQGTTVTVSS VL: ETTLTQSPATLSVSPGERATLSCRASESVGSNLAWYQQKPGQAPSLLIYGASTRATGIPDRFSGSGSGTDFTLTISSLQSEDFAAYYCQQYNNWPLTFGPGTKVEIK | 4.5
1F8 IgG1 (antibody, V domains shown) VH: EVQLVQSGAEVKEPGSSVKVSCKASGGTFGSYAINWVRQAPGQRLEWMGWIDAANGNTKYSQKFQGRVTITGDTSASTAYMELSSLRSEDTAVYYCARDRWMTTRAFDIWGQGTMVTVSS VL: QPVLTQPPSASGTPGQRVTISCSGSSSNIGSNYVFWYQQLPGMAPKLLISRNNQRPSGVPDRFSGSKSGTSASLAISGPQSEDEADYYCAAWDDSLRGPVFGGGTRVTVL | 4.05
3A1 scFvFc (scFv, V domains shown) VH: QVQLVQSGAEVKKPGSSVKVSCKASGGTFSSYAVSWVRQAPGQGLEWVGRIIPIFGKANYAQKFQGRVTITADKSTSTAYMELSSLRPEDTAVYYCARDQGISANFKDAFDIWGQGTTVTVSS VL: ETTLTQSPATLSVSPGERATLSCRASESVGSNLAWYQQKPGQAPSLLIYGASTRATGIPDRFSGSGSGTDFTLTISSLQSEDFAAYYCQQYNNWPLTFGPGTKVEIK | 1.46
3B11 IgG1 (antibody, V domains shown) VH: QVQLVQSGAEVKKPGSSVKVSCKASGGTFSSYAISWVRQAPGQGLEWMGGIIPIFGTANYAQKFQGRVTITADKSTSTAYMELSSLRSEDTAVYYCARVGYCSSTSCHIGAFDIWGQGTTVTVSS VL: ETTLTQSPGTLSLSPGERATLSCRASQSVSSSIAWYQQKPGQAPRLLMFDSSTRATGIPDRFSGSGSGTDFTLNISSLEPEDFAVYYCQQYSSSPYTFGQGTKLEIK | 3.5

Just for reference, patent US20210147513A1 is where these values come from.
